Listing of recorded Inhibitory rate (%) by entry.
target: T1, PCSK9 protein (UniProt Q8NBP7 31-692, limits assumed); test: PCSK9-LDLR in vitro binding assay kit, OD450/540; peptide 50 µM, PCSK9 75 ng/mL; inhibition of PCSK9 binding to LDLR
T1 construct: Kit reagent; also called proprotein convertase subtilisin/kexin type 9
Bridge positions count the residues as written; N and C are the ends. Ends that are not written are not given here.
Readout: Inhibitory rate (%)

[
  {
    "Binder": "TVFTSGRCTKSIPPICFWEEYLDWV (disulfide 8-16 (inferred), Hybrid with the anti-trypsin scaffold BT45; A disulfide bond joins the two Cys of the scaffold) [PCSK9_9]",
    "Readout": "Inhibitory rate (%)",
    "Observed Value": 93.9
  },
  {
    "Binder": "WEEALDWVCGRATKSIPPICFTVFTS (disulfide 9-20 (inferred), A disulfide bond joins the two Cys of the scaffold) [PCSK9_4]",
    "Readout": "Inhibitory rate (%)",
    "Observed Value": 41.4
  },
  {
    "Binder": "FCTYSIPPQCYGGTVFTSWEEALDWV (disulfide 2-10 (inferred), Contains an anti-chymotrypsin scaffold, with a disulfide bond between its two Cys) [PCSK9_3CH]",
    "Readout": "Inhibitory rate (%)",
    "Observed Value": 99.2
  },
  {
    "Binder": "TVFTSWEEALDWVGFCTYSIPPQCYG (disulfide 16-24 (inferred), Contains an anti-chymotrypsin scaffold, with a disulfide bond between its two Cys) [PCSK9_2CH]",
    "Readout": "Inhibitory rate (%)",
    "Observed Value": 100
  },
  {
    "Binder": "WEEALDWVCGRATKSIPPICFGTVFTS (disulfide 9-20 (inferred), Hybrid with the anti-trypsin scaffold BT9; A disulfide bond joins the two Cys of the scaffold) [PCSK9_5]",
    "Readout": "Inhibitory rate (%)",
    "Observed Value": 77.9
  },
  {
    "Binder": "ICTASIPPICQGTVFTSWEEALDWV (disulfide 2-10 (inferred), Contains an anti-elastase scaffold, with a disulfide bond between its two Cys) [PCSK9_3EC]",
    "Readout": "Inhibitory rate (%)",
    "Observed Value": 99.6
  }
]
